- Tested on: human TLR8 (Homo sapiens)
- Construct: host or cells: HEK293 NF-kB reporter cells
- Experiment summary: HEK Reporter Assay, HEK293 NFKB reporter cells expressing human TLR8
- Format: cell-based
- Condition context: read-out: HEK293 hTLR8 EC50
Measured endpoint: log10(EC50) (log10 of the value in nM)
On a log10 scale: recorded EC50, unit nM.

In the examples that follow, each entry is paired with its recorded log10(EC50).
Compound structure | Reported result
CCCN(OCC(C)C)C(=O)C1=Cc2ccc(-c3cnc(CN)nc3)cc2N=C(N)C1 | 2.55
CCCN(OCC)C(=O)C1=Cc2ccc(-c3cnc(N4CCN(C(=O)OC(C)(C)C)CC4)nc3)cc2N=C(N)C1 | 2.54
CCCN(OCCNC(=O)OC1CCC1)C(=O)C1=Cc2ccc(-c3cnc(CN)nc3)cc2N=C(N)C1 | 1.00
CCCN(OCCNC(=O)NC1CCC1)C(=O)C1=Cc2ccc(-c3cnc(CN)nc3)cc2N=C(N)C1 | 2.60
CCCN(OCC)C(=O)C1=Cc2ccc(-c3cnc(C(=O)N4CCC[C@H]4C(=O)OC)nc3)cc2N=C(N)C1 | 0.78
CCCN(OCCNC(=O)OC1CCC1)C(=O)C1=Cc2ccc(-c3cncc(S(=O)(=O)N4CC(CN)C4)c3)cc2N=C(N)C1 | 1.90
CCCN(OCC)C(=O)C1=Cc2ccc(-c3cccnn3)cc2N=C(N)C1 | 2.44

Switching to the query record.
Query: Under human TLR8 (Homo sapiens): log10(EC50) value of CCCN(OCC)C(=O)C1=Cc2ccc(-c3cncc(CN)c3)cc2N=C(N)C1 ?
Response: 1.81

---

- Tested on: human TLR7 (Homo sapiens, UniProt Q9NYK1)
- Sequence (Q9NYK1 27-1049): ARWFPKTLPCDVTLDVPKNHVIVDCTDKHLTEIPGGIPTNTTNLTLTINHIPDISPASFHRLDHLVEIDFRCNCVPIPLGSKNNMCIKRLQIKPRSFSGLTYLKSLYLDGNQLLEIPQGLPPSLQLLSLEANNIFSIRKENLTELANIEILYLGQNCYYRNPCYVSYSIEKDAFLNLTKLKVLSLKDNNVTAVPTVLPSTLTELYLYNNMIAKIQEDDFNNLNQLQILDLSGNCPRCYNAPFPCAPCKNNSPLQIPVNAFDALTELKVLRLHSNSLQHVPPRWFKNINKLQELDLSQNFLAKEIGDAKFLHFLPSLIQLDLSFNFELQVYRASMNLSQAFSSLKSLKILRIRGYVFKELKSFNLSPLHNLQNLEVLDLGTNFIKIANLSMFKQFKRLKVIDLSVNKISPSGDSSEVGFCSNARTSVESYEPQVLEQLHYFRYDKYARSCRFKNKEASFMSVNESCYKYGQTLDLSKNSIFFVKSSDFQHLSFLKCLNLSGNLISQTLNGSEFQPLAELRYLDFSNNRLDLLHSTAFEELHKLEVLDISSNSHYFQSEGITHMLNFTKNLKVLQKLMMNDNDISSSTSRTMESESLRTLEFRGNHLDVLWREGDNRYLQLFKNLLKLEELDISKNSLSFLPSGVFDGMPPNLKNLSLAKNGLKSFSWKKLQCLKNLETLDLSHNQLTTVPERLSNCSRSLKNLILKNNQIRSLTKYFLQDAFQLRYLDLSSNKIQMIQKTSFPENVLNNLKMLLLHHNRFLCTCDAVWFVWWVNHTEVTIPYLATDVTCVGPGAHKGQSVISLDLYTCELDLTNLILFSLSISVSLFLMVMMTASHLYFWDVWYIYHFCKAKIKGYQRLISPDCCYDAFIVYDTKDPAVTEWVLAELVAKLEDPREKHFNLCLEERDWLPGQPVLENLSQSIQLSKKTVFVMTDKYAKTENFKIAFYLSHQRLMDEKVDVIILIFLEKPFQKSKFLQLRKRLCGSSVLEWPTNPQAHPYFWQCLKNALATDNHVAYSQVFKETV
- Experiment summary: HEK Reporter Assay, HEK293 NFKB reporter cells expressing human TLR7
- Condition context: read-out: HEK293 hTLR7 EC50
- Method: Each compound was synthesized, purified, and characterized by mass spectrometry and shown to have the mass indicated. Additional experimental procedures are found in the Examples. Activity against Human Embryonic Kidney (HEK) 293 NFKB reporter cells expressing human TLR7 or human TLR8 was measured according to Example 202. […]
Measured endpoint: EC50 (nM)
Please give a number only; it is taken to be in nM.

Example results:
Compound structure | Uom | EC50
CCCN(OCCO)C(=O)C1=Cc2ccc(-c3cnc(CN)nc3)cc2N=C(N)C1 | nM | 3920
CCCN(OCC)C(=O)C1=Cc2ccc(-c3cnc(CN)nc3)cc2N=C(N)C1 | nM | 525
CCCN(CCCNC(=O)OC(C)C)C(=O)C1=Cc2ccc(-c3cnc(CN)nc3)cc2N=C(N)C1 | nM | 134
CCCN(CCCNC(=O)OC1CCC1)C(=O)C1=Cc2ccc(-c3ccc(CN)nc3)cc2N=C(N)C1 | nM | 56

Query: What value of EC50 has been recorded for this entry: CCCN(OCCNC(=O)NC1CCC1)C(=O)C1=Cc2ccc(-c3cnc(CN)nc3)cc2N=C(N)C1
Response: 4600

---

- Tested on: human TLR8 (Homo sapiens, UniProt Q9NR97)
- Sequence (Q9NR97 27-1041): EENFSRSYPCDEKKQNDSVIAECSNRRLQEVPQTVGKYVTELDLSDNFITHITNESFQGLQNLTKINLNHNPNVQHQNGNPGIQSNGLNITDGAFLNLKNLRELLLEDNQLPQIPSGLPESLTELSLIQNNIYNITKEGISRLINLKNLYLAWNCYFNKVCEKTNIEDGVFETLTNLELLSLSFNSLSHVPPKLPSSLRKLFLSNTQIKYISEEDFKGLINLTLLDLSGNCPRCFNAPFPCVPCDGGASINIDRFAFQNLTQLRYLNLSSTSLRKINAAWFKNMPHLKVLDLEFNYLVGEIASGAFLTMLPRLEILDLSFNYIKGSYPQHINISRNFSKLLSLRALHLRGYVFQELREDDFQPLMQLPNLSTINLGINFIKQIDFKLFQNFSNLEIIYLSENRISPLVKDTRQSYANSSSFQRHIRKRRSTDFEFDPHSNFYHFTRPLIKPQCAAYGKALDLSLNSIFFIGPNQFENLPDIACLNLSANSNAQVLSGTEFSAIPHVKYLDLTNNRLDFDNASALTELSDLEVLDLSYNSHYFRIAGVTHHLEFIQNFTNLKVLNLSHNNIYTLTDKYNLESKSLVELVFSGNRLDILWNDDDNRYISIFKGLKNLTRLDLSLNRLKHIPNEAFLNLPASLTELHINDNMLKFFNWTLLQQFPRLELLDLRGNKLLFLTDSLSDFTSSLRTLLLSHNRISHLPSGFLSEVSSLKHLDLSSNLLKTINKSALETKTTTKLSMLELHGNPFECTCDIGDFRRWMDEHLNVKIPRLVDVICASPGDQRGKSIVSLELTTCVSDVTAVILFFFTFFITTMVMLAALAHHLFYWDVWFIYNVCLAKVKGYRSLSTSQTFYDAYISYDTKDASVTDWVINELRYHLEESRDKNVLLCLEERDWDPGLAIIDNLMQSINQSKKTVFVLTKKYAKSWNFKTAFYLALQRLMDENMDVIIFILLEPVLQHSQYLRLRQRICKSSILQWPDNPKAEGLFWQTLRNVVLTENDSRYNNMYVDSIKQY
- Experiment summary: HEK Reporter Assay, HEK293 NFKB reporter cells expressing human TLR8
- Condition context: read-out: HEK293 hTLR8 EC50
Measured endpoint: EC50 (µM)
Reply numerically in µM, unit not repeated.

Past entries and their recorded results:
Molecule | Uom | Reported result
CCCN(OCCNC(=O)OC(C)C)C(=O)C1=Cc2ccc(-c3cnc(CN)nc3)cc2N=C(N)C1 [HxBz-27] | µM | 0.009
CCCN(OCC)C(=O)C1=Cc2ccc(-c3cnc(C(=O)OC)nc3)cc2N=C(N)C1 [HxBz-11] | µM | 0.161
CCCN(CCCNC(=O)OC1CCC1)C(=O)C1=Cc2ccc(-c3cncc(S(=O)(=O)N4CC(CN)C4)c3)cc2N=C(N)C1 [HxBz-32] | µM | 1.52

Query: Please look up its EC50: CCCN(CCCOC(=O)NC1CCC1)C(=O)C1=Cc2ccc(-c3cnc(CN)nc3)cc2N=C(N)C1 [HxBz-45]
Response: 0.325

Query: For CCCN(CCCNC(=O)OC(C)C)C(=O)C1=Cc2ccc(-c3cnc(CN)nc3)cc2N=C(N)C1 [HxBz-29] , what is its reported EC50?
Response: 0.296

Query: Given CCCN(OCC)C(=O)C1=Cc2ccc(N3CCNCC3)cc2N=C(N)C1 [HxBz-18] , state its recorded EC50.
Response: 0.281

Query: Given CCCN(OCCO)C(=O)C1=Cc2ccc(-c3cncc(S(=O)(=O)N4CC(CN)C4)c3)cc2N=C(N)C1 [HxBz-43] , state its recorded EC50.
Response: 6.16

Query: I would be grateful if you could share the reported EC50 for CCCN(OCCNC(=O)OC1CCC1)C(=O)C1=Cc2ccc(-c3ccc(CN)nc3)cc2N=C(N)C1 [HxBz-47] .
Response: 0.012

Query: Entry under review: CCCN(CCCNC(=O)OC1CCC1)C(=O)C1=Cc2ccc(-c3cnc(CN)nc3)cc2N=C(N)C1 [HxBz-13] . Reported EC50?
Response: 0.274

Query: Look up EC50 for this molecule: CCCN(OCC)C(=O)C1=Cc2ccc(-c3cnnc(CN)c3)cc2N=C(N)C1 [HxBz-48]
Response: 2.16
